System: RPMI-8226 leukemia
Experiment: NCI tumour cell line growth inhibition, 48 h
Quick list: log10(TGI) per entry.
Remember, log10 of TGI, in µM.

Solved entries:
1) C[C@H](Nc1ccc(C#N)n(C)c1=O)c1cc2cc(Cl)ccc2[nH]c1=O = 1.69
2) CC(/C=C/C=C/C=C/C=C/C=C/C(O)=C1/C(=O)C(CCC(=O)O)N(C)C1=O)=C\C(C)C(OC1CC(O)C(O)C(C)O1)C(C)C (stereo unspecified) = 0.97
3) CN(C)c1cc2c(cc1Sc1nc3c(N)nccc3n1CCNCC(C)(C)C)OCO2 = 1.29
4) COc1cc2c3c(n(CCCN=[N+]=[N-])c(=O)c2cc1OC)-c1ccc(N)cc1C3=O = -0.35
5) CC(C)(C)OC(=O)N1C(C2=COc3ccccc3O2)=COc2cccnc21 = 0.65
6) COc1cccc(/C=N/[N-]C(N)=O)c1[O-].[Cu+2].[OH3+].c1cnc2c(c1)ccc1cccnc12 = 1.96
7) Oc1c(Cl)cc(C(c2cc(Cl)c(O)c(Cl)c2)C(c2cc(Cl)c(O)c(Cl)c2)c2cc(Cl)c(O)c(Cl)c2)cc1Cl = 1.09
8) COC(=O)c1c(O)ccc2c1c1c(n2Cc2ccccn2)C(=O)c2ccccc2C1 = 1.78
9) Oc1ccc(Cl)cc1Cc1cc(Cl)cc(Cc2cc(Cl)ccc2O)c1O = 0.74

Then there is this compound:
Exam item: Quick one: log10(TGI) of CC1C(=O)CCC1C(Sc1ccccc1)(Sc1ccccc1)Sc1ccccc1 (stereo unspecified) ?
Marked response: 1.61

###

Tested on: SNB-75 CNS
Experiment: NCI tumour cell line growth inhibition, 48 h
Is TGI at least 30 µM? Then Fulfilled. If not, Not fulfilled.

1) COc1cc(S(=O)(=O)N/N=C/C=C/c2ccccc2)c(OC)cc1NC(C)=O = Fulfilled

Shift focus to the following entry.
Exam item: Please tell me: is the molecule COc1ccc(C2Cc3cc(OC)c(OC)c(OC)c3C2=O)cc1 (stereo unspecified) at or over 30 µM in terms of TGI?
Marked response: Fulfilled

###

Tested on: HCT-116 colon
Assay: NCI tumour cell line growth inhibition, 48 h
MEASURED_PROPERTY: TGI

These recorded examples may help you get a feel for the data.
1. CC(C)(C)OC(=O)N1C[C@H](CC(=O)OCc2ccccc2)C[C@H]1C(=O)OCC(Cl)(Cl)Cl = > 50 µM
2. COc1c(Nc2ncc(Cl)c(N[C@@H]3[C@H]4C=CC(C4)[C@@H]3C(N)=O)n2)ccc2c1CC[C@@H](N1CCOCC1)CC2 = 10.3 µM

Exam item: What value of TGI has been recorded for this entry: "Nc1ccccc1C#Cc1ccccc1C#Cc1ccccc1N"
Marked response: 21.5 µM

Exam item: Need TGI of COc1cccc(C2=NN(C(C)=O)C(c3cc(OC)c(OC)c(OC)c3)C2)c1 (stereo not given) , thanks.
Marked response: > 100 µM

Exam item: # get_value(readout='TGI', item= C[C@@]12CCC[C@@](C)(C(=O)O)C1CC[C@]13C=C(CO)[C@](O)(CCC12)C3 (stereo not given in full) )
Marked response: > 100 µM

Exam item: Name the reported TGI value associated with the compound CCOC(=O)N/N=C/C1=NN(C(=O)OCC)S(=O)C1C (stereo not given)
Marked response: > 100 µM

Exam item: Which TGI is listed for "CC(C)=CCC/C(C)=C/CC/C(C)=C/[C@@H]1[C@@H](CO)[C@]1(C)CC/C=C(\C)CCC=C(C)C" ?
Marked response: > 100 µM

Exam item: For the compound shown here, "Cc1ccc2c(=O)c(-c3nnsn3)c[nH]c2n1" , give the reported TGI.
Marked response: > 100 µM

Exam item: # input compound: "COC(=O)/C=C1/OC(c2ccc(Br)cc2)=C(Br)C1=O" ; wanted: its TGI
Marked response: 7.75 µM

Exam item: Look at this compound and give its reported TGI. CCCCCCOC(=O)C(N)Cc1ccc(OC)cc1 (stereo not given)
Marked response: > 100 µM

###

Test system: SN12C renal
Assay: NCI tumour cell line growth inhibition, 48 h; in the data active = GI50 below about 0.43 µM; inactive = the rest
Valid outcomes are listed here; reply with one: label 1 for active, label 0 for inactive

Exam item: Called result for "S=C(Nc1ccc(-c2nc3ccccc3s2)cc1)Nc1ccccn1"
Marked response: label 0

Exam item: Look up the recorded call for "Cc1ccccc1NC(=O)N/C(N)=N/c1nc2ccccc2s1" in this test.
Marked response: label 1

Exam item: For "C=C1C(=O)O[C@H]2[C@H]1CC/C(COC(=O)NCc1c[nH]c3ccc(OC)cc13)=C\CC[C@@]1(C)O[C@@H]21" , what call appears in the results of this test?
Marked response: label 0

Exam item: # outcome recorded in this test, key = "C=C1CCCC(C)(C)[C@@H]1CC/C(C)=C/Cn1c2cccc(=O)c-2nc2ccccc21"
Marked response: label 0

Exam item: Hi team, can someone confirm the assay call for "CCCCCCCCCCCCCCCCCC(=O)[O][Sn]([CH2]CCC)([CH2]CCC)[CH2]CCC" ?
Marked response: label 1

###

Test system: NCI-H522 lung
Assay: NCI tumour cell line growth inhibition, 48 h; in the data active means GI50 below about 0.43 µM; inactive means the rest
Answer with one of the outcomes given here: active, inactive

Some solved entries appear below for comparison.
1. CCCCN(CCCC)c1cc(C(=O)CCCCCN)c2ccccc2n1 = inactive
2. Nc1ccccc1C#Cc1ccccc1C#Cc1ccccc1N = inactive
3. O=C1OCC2=C1C(c1cccc([N+](=O)[O-])c1)c1cc3c(cc1N2CCO)CCC3 (centres undefined) = active
4. CCOc1ccc(/C=N/Nc2cc(C)nc3ccc(Cl)cc23)cc1 = inactive
5. CN(C)c1cc2c(Nc3ccc4nc(Cc5ccccc5)[nH]c4c3)ncnc2cn1 = inactive
6. O=C(/C=C/c1ccccc1O)c1ccccc1 = inactive
7. Cc1ccccc1NC(=O)N/C(N)=N/c1nc2ccccc2s1 = active
8. O=C(Nc1cccc(-n2cc(-c3ccncc3)c(-c3cc(O)cc(Cl)c3)n2)c1)Nc1ccc(Cl)c(Cl)c1 = inactive

Exam item: What classification did "Clc1ccc(-c2nc(-c3c[nH]c4ncccc34)cs2)cc1" end up with in this test?
Marked response: inactive

###

Test system: IGROV1 ovarian
Assay: NCI tumour cell line growth inhibition, 48 h
MEASURED_PROPERTY: TGI

Field: example entries. Status: answers known.
1. CC12Oc3ccc4ccccc4c3C1c1c(ccc3ccccc13)O2 (configuration not stated) = > 100 µM
2. Clc1ccc(NCc2nnc(COc3ccc(OCc4nnc(CNc5ccc(Cl)cc5)o4)c(Cl)c3)o2)cc1 = > 100 µM
3. NNC(=O)CC(=O)Nc1ccc(C(=O)O)cc1 = > 100 µM
4. O=C(O)c1cnccc1-c1cc(=O)[nH]n1-c1ccccc1 = > 100 µM
5. O=S1(=O)COc2ccccc2-c2ncncc21 = > 100 µM
6. O=P(O)(O)OP(=O)(O)O = > 100 µM
7. CCC1(O)C(=O)OCc2c1cc1n(c2=O)Cc2c-1nc1ccccc1c2OC (configuration not stated) = 5.65 µM
8. Cc1cc(N2CCOCC2)nc(N(CCNc2ccnc3cc(Cl)ccc23)Cc2ccco2)n1 = 23.1 µM
9. CCN(CC)/[N+]([O-])=N/OC = > 100 µM
10. COC(=O)C(CCC1(C)OCCO1)C(C)=O (configuration not stated) = > 100 µM

Exam item: Find the recorded TGI belonging to "O=[N+]([O-])c1ccc(Oc2cccnc2)c([N+](=O)[O-])c1" and report it.
Marked response: > 100 µM

Exam item: // TGI lookup, key: "NC(N)=NS(=O)(=O)c1ccc(Nc2c3ccccc3nc3c(C(=O)N4CCN(CCO)CC4)ccc(Cl)c23)cc1"
Marked response: > 100 µM

###

Measured TGI, listed per entry.
Tested on: SR leukemia
Test: NCI tumour cell line growth inhibition, 48 h

Consider the following illustrative entries.
1. O=C1C(CN(Cc2ccccc2)Cc2ccccc2)CCCC1CN(Cc1ccccc1)Cc1ccccc1 (stereo unspecified) = > 100 µM
2. CC(C)c1ccc2c(c1)[C@@]1(C)CC[C@H](C)C(C)(C)C1CC2 (stereo partly specified) = 67.5 µM
3. CN(C)C(=O)c1nnsc1NN=O = > 100 µM
4. Cn1c(=O)c2c(ncn2CCCCn2ccnc2[N+](=O)[O-])n(C)c1=O = > 100 µM
5. C[C@]1(O)CC(=O)c2c(c(-c3ccc4cc5c(c(O)c4c3O)C(=O)C[C@@](C)(O)C5)c3cccc(O)c3c2O)C1 = > 100 µM

Exam item: Report TGI for CCOC(=O)CC(=O)N(c1ccc(OC)cc1)C(C(=O)OC)c1ccccc1 (stereo unspecified) tested on SR leukemia.
Marked response: > 100 µM

Exam item: Missing value: TGI, SR leukemia, entry "C[C@@]12C[C@@H](c3ccccc3O1)N1CCSC1=N2" . Fill in?
Marked response: > 100 µM

###

Tested on: A549 NSCLC
Test: NCI tumour cell line growth inhibition, 48 h
MEASURED_PROPERTY: TGI (µM)
Lab book: enter the figure in µM, no units written.

1) Cc1cc(N2CCOCC2)nc(N(CCCNc2ccnc3cc(Cl)ccc23)Cc2ccc3c(c2)OCO3)n1 = 3.12
2) Cc1cc(=O)cc2sc3cc(Cl)ccc3nc1-2 = 17.8
3) COc1cc2c3c(n(CCCN=[N+]=[N-])c(=O)c2cc1OC)-c1ccc(N)cc1C3=O = 2.34

Please find the next molecule below.
Exam item: For the molecule CC(=O)OCC1OC(O[C@@H]2C[C@H]3C(C)(C)[C@H](OC(C)=O)CC[C@]3(C)[C@H]3CC[C@@]45C[C@H](O)C[C@H](C)[C@@H]4CC=C5[C@@]32C)C(O)C(O)C1O (stereo not given in full) , what TGI is on record?
Marked response: 16.9
